B1: tRNA (parent)
chain: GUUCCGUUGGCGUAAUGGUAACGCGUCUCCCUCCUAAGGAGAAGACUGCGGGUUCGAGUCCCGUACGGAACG

# Variants of: B1
# TEST: yeast fitness, log relative to wild type (ln ratio); higher = fitter; tRNA-Arg(CCU), competitive growth, 37 C, 1 M NaCl
MEASUREMENT_TYPE: yeast fitness (ln)

> print(dat)
                      macromolecule.sequence  recorded.result
 1  GUUCCUUUGGCGUAAUGGUAACGCGUUUCCCUCCUAAGGAGACGACUGCGGGUUCGAGUCCCGUAUGGAUCG           -0.259
 2  AUUCCAUUGGCGUAAUGGUAACGCGUCUCCCUCCUAAGGAGACGACUGCGGGUUCGAGUCCCGUAUGGAUUG           -0.405
 3  AUUCCUUUGGCGUAAUGGUAACGCGUUUCCCUCCUAAGGAGAAGAUUGCGGGUUCGAGUCCCGUACGGGGUG           -0.335
 4  AGUCCGUUGGCGUAAUGGUAACGCGUUUCCCUCCUAAGGAGAAGAUUGCGGGUUCGAGUCCCGUAAGGAAUG          -0.0936
 5  ACUCCGUUGGCGUAAUGGUAACGCGUUUCCCUCCUAAGGAGAAGACUGCGGGUUCGAGUCCCGUAUGGAAUG            -0.33
 6  AGUCCUUUGGCGUAAUGGUAACGCGUCUCCCUCCUAAGGAGACGACUGCGGGUUCGAGUCCCGUAUGGGAUG           -0.437
 7  GGUCCGUUGGCGUAAUGGUAACGCGUCUCCCUCCUAAGGAGACGAUUGCGGGUUCGAGUCCCGUACGGGGCG           -0.174
 8  AGUCCAUUGGCGUAAUGGUAACGCGUCUCCCUCCUAAGGAGAAGAUUGCGGGUUCGAGUCCCGUACGGGUUG           -0.259
 9  GCUCCGUUGGCGUAAUGGUAACGCGUUUCCCUCCUAAGGAGACGAUUGCGGGUUCGAGUCCCGUACGGGAUG           -0.118
10  AGUCCUUUGGCGUAAUGGUAACGCGUCUCCCUCCUAAGGAGAAGAUUGCGGGUUCGAGUCCCGUACGGGAUG             -0.3
11  GUUCCGUUGGCGUAAUGGUAACGCGUCUCCCUCCUAAGGAGAAGACUGCGGGUUCGAGUCCCGUACGGGACG         -0.00462
12  GGUCCGUUGGCGUAAUGGUAACGCGUCUCCCUCCUAAGGAGAAGACUGCGGGUUCGAGUCCCGUAAGGGUUG           -0.291
13  GGUCCAUUGGCGUAAUGGUAACGCGUCUCCCUCCUAAGGAGACGACUGCGGGUUCGAGUCCCGUACGGGGCG           -0.185
14  ACUCCAUUGGCGUAAUGGUAACGCGUCUCCCUCCUAAGGAGACGAUUGCGGGUUCGAGUCCCGUAUGGAAUG           -0.246
15  GCUCCAUUGGCGUAAUGGUAACGCGUUUCCCUCCUAAGGAGACGACUGCGGGUUCGAGUCCCGUAAGGAUCG          -0.0983
16  GUUCCUUUGGCGUAAUGGUAACGCGUUUCCCUCCUAAGGAGACGACUGCGGGUUCGAGUCCCGUACGGGGUG            -0.49
17  GUUCCGUUGGCGUAAUGGUAACGCGUUUCCCUCCUAAGGAGACGAUUGCGGGUUCGAGUCCCGUACGGGACG          -0.0156
18  AUUCCUUUGGCGUAAUGGUAACGCGUUUCCCUCCUAAGGAGAAGAUUGCGGGUUCGAGUCCCGUAUGGAAUG           -0.297
19  GCUCCGUUGGCGUAAUGGUAACGCGUCUCCCUCCUAAGGAGACGACUGCGGGUUCGAGUCCCGUAAGGAUCG          -0.0829
20  AUUCCUUUGGCGUAAUGGUAACGCGUUUCCCUCCUAAGGAGACGACUGCGGGUUCGAGUCCCGUACGGAACG           -0.258
21  GUUCCUUUGGCGUAAUGGUAACGCGUCUCCCUCCUAAGGAGAAGAUUGCGGGUUCGAGUCCCGUAUGGAUUG           -0.302
22  AUUCCUUUGGCGUAAUGGUAACGCGUUUCCCUCCUAAGGAGAAGAUUGCGGGUUCGAGUCCCGUAAGGAGUG            -0.23
23  GCUCCUUUGGCGUAAUGGUAACGCGUCUCCCUCCUAAGGAGAAGACUGCGGGUUCGAGUCCCGUAAGGAUUG           -0.105
24  AGUCCUUUGGCGUAAUGGUAACGCGUCUCCCUCCUAAGGAGACGACUGCGGGUUCGAGUCCCGUACGGAUUG            -0.41
25  GUUCCUUUGGCGUAAUGGUAACGCGUUUCCCUCCUAAGGAGACGAUUGCGGGUUCGAGUCCCGUAAGGGUCG           -0.462
26  AUUCCGUUGGCGUAAUGGUAACGCGUUUCCCUCCUAAGGAGACGAUUGCGGGUUCGAGUCCCGUACGGAUCG           -0.203
27  AGUCCGUUGGCGUAAUGGUAACGCGUCUCCCUCCUAAGGAGACGAUUGCGGGUUCGAGUCCCGUAAGGGUCG           -0.252
28  ACUCCAUUGGCGUAAUGGUAACGCGUCUCCCUCCUAAGGAGACGAUUGCGGGUUCGAGUCCCGUAUGGAUUG           -0.402
29  AGUCCUUUGGCGUAAUGGUAACGCGUUUCCCUCCUAAGGAGACGACUGCGGGUUCGAGUCCCGUACGGGGCG           -0.326
30  AGUCCAUUGGCGUAAUGGUAACGCGUCUCCCUCCUAAGGAGACGACUGCGGGUUCGAGUCCCGUACGGAUUG           -0.309
31  AUUCCGUUGGCGUAAUGGUAACGCGUUUCCCUCCUAAGGAGACGACUGCGGGUUCGAGUCCCGUAAGGAGUG            -0.35
32  GUUCCGUUGGCGUAAUGGUAACGCGUUUCCCUCCUAAGGAGACGACUGCGGGUUCGAGUCCCGUACGGGACG          -0.0699
33  ACUCCAUUGGCGUAAUGGUAACGCGUCUCCCUCCUAAGGAGACGACUGCGGGUUCGAGUCCCGUAUGGAGCG            -0.12
34  AGUCCAUUGGCGUAAUGGUAACGCGUCUCCCUCCUAAGGAGACGACUGCGGGUUCGAGUCCCGUAUGGGGUG           -0.612
35  GCUCCUUUGGCGUAAUGGUAACGCGUUUCCCUCCUAAGGAGACGACUGCGGGUUCGAGUCCCGUAUGGAAUG           -0.338
36  AUUCCAUUGGCGUAAUGGUAACGCGUCUCCCUCCUAAGGAGAAGAUUGCGGGUUCGAGUCCCGUAUGGAGUG          -0.0284
37  GGUCCUUUGGCGUAAUGGUAACGCGUUUCCCUCCUAAGGAGAAGAUUGCGGGUUCGAGUCCCGUACGGGUCG           -0.153
38  ACUCCAUUGGCGUAAUGGUAACGCGUCUCCCUCCUAAGGAGACGAUUGCGGGUUCGAGUCCCGUAUGGGGCG           -0.232
39  GGUCCAUUGGCGUAAUGGUAACGCGUCUCCCUCCUAAGGAGAAGAUUGCGGGUUCGAGUCCCGUAUGGGGUG           -0.188
40  AGUCCUUUGGCGUAAUGGUAACGCGUUUCCCUCCUAAGGAGACGAUUGCGGGUUCGAGUCCCGUACGGGUUG            -0.41
41  ACUCCAUUGGCGUAAUGGUAACGCGUUUCCCUCCUAAGGAGACGAUUGCGGGUUCGAGUCCCGUACGGAUCG           -0.125
